- System: E. faecalis ATCC 29212 (VRE)
- ASSAY PROCEDURE: Broth dilution MIC, E. faecalis ATCC 29212
- Assay type: cell-based
- STATED CONDITIONS: Table 3; starting at 4 μg/ml
# MIC E. faecalis ATCC 29212 per record follows
Just the number please, in µg/mL, no unit attached.

{"columns": ["COMPOUND", "MEASURE UNIT", "MIC E. faecalis ATCC 29212"],
 "data": [
  ["c1cncc(Nc2ccc(-c3cc4ccc(C5=NCCN5)cc4[nH]3)cc2)c1", "µg/mL", 0.5],
  ["c1cc(C2=NCCN2)ccc1Nc1ccc(-c2cc3ccc(C4=NCCN4)cc3[nH]2)cc1", "µg/mL", 0.25],
  ["C[C@@H](O)[C@H]1C(=O)N2C(C(=O)O)=C(SCCN=CN)C[C@H]12 [IMP, reference compound]", "µg/mL", 1]
]}

Asked: Which MIC E. faecalis ATCC 29212 is listed for c1cnc(-c2ccc(Nc3ccc(-c4cc5ccc(C6=NCCN6)cc5[nH]4)cc3)cc2)cn1 ?
Given back: 0.25

----------
# MIC per record follows
- Tested on: E. faecalis ATCC 29212 (VRE)
- ASSAY PROCEDURE: Broth dilution MIC, E. faecalis ATCC 29212
- Format: cell-based
- STATED CONDITIONS: Table 2; broth dilution MIC in ug/ml; read-out: MIC E faecalis ATCC 29212 VRE
Just the number please, in µg/mL, no unit attached.

As a guide, the following entries are already answered.
{"columns": ["SMILES RECORD", "SUBJECT OF TEST", "MIC, µg/mL"],
 "data": [
  ["c1cc(-c2cc3ccc(C4=NCCN4)cc3[nH]2)ccc1NC1CCNCC1", "E. faecalis ATCC 29212 (VRE)", 64],
  ["Nc1ccc(-c2ccc3cc(-c4ccc(Nc5ccc(C6=NCCN6)cc5)cc4)[nH]c3c2)cc1", "E. faecalis ATCC 29212 (VRE)", 32]
]}

Asked: For E. faecalis ATCC 29212 (VRE), provide MIC of c1ccc(Nc2ccc(-c3cc4ccc(C5=NCCN5)cc4[nH]3)cc2)cc1 please.
Given back: 2

Asked: Next compound up: c1cncc(Nc2ccc(-c3cc4ccc(C5=NCCN5)cc4[nH]3)cc2)c1
Given back: 0.5

Asked: Next compound up: Nc1ccc(Nc2ccc(-c3cc4ccc(C5=NCCN5)cc4[nH]3)cc2)cc1
Given back: 8

Asked: Next compound up: c1cnc(-c2ccc(Nc3ccc(-c4cc5ccc(C6=NCCN6)cc5[nH]4)cc3)cc2)cn1
Given back: 0.25

----------
- System: E. coli ECM 1694
- ASSAY PROCEDURE: Broth dilution MIC, E. coli ECM 1694
- Format: cell-based
- STATED CONDITIONS: Escherichia coli, ECM1694, Table 2; broth dilution MIC in ug/ml; read-out: MIC E. coli ECM 1693
# MIC per record follows
Just the number please, in µg/mL, no unit attached.

{"columns": ["SMILES RECORD", "MIC (µg/mL)"],
 "data": [
  ["Nc1ccc(Nc2ccc(-c3cc4ccc(C5=NCCN5)cc4[nH]3)cc2)cc1", 2]
]}

Asked: For E. coli ECM 1694, provide MIC of c1cncc(Nc2ccc(-c3cc4ccc(C5=NCCN5)cc4[nH]3)cc2)c1 please.
Given back: 0.12

Asked: Next compound up: c1ccc(Nc2ccc(-c3cc4ccc(C5=NCCN5)cc4[nH]3)cc2)cc1
Given back: 2
